- method.description: Part B multiple-dose pharmacokinetics (once weekly for 4 weeks) in obese subjects
- Type: in vivo, human
- particulars: human, plasma; 10 mg SC once weekly for 4 weeks
- Method: In order to assess the pharmacokinetics of setmelanotide, a two part study was carried out comprising single dose administration (Part A) and multiple dose administration (Part B) with healthy obese subjects. […] Blood samples were collected at a time before dosing and at 0.5, 1, 2, 3, 4, 6, 8, 10, 12, 16, 24, 30, 36, 48, 60, 72, 96, 120, 168, 240, and 336 hours during Week 1 and during Week 4. The actual sampling times were recorded. […]
parameter: Cmax (ng/mL)
Unit ng/mL implied. Number only.

Q) Give its Cmax value. Item: CC(=O)N[C@@H](CCCNC(=N)N)C(=O)N[C@H]1CSSC[C@@H](C(N)=O)NC(=O)[C@H](Cc2c[nH]c3ccccc23)NC(=O)[C@H](CCCNC(=N)N)NC(=O)[C@@H](Cc2ccccc2)NC(=O)[C@H](Cc2c[nH]cn2)NC(=O)[C@@H](C)NC1=O [setmelanotide]
A) 11.4

* * *

- method.description: Part A single-dose pharmacokinetics of long-acting setmelanotide formulation in healthy obese subjects
- Type: in vivo, human
- particulars: human, plasma; single SC dose 10 mg
parameter: Cmax (ng/mL)
Write the answer as a number in ng/mL, unit excluded.

Q) Record request: Cmax value, item CC(=O)N[C@@H](CCCNC(=N)N)C(=O)N[C@H]1CSSC[C@@H](C(N)=O)NC(=O)[C@H](Cc2c[nH]c3ccccc23)NC(=O)[C@H](CCCNC(=N)N)NC(=O)[C@@H](Cc2ccccc2)NC(=O)[C@H](Cc2c[nH]cn2)NC(=O)[C@@H](C)NC1=O [setmelanotide]
A) 11.5

* * *

- method.description: Part A single-dose pharmacokinetics of long-acting setmelanotide formulation in healthy obese subjects
- Assay type: in vivo, human
- particulars: human, plasma; single SC dose 10 mg; read-out: median tmax
parameter: Tmax (h)
Numbers only here, please. The scale is h.

Q) Request the reported Tmax associated with CC(=O)N[C@@H](CCCNC(=N)N)C(=O)N[C@H]1CSSC[C@@H](C(N)=O)NC(=O)[C@H](Cc2c[nH]c3ccccc23)NC(=O)[C@H](CCCNC(=N)N)NC(=O)[C@@H](Cc2ccccc2)NC(=O)[C@H](Cc2c[nH]cn2)NC(=O)[C@@H](C)NC1=O [setmelanotide]
A) 4

* * *

- method.description: Part B multiple-dose pharmacokinetics (once weekly for 4 weeks) in obese subjects
- Format: in vivo, human
- particulars: human, plasma; 10 mg SC once weekly for 4 weeks; read-out: median tmax
- Procedure: In order to assess the pharmacokinetics of setmelanotide, a two part study was carried out comprising single dose administration (Part A) and multiple dose administration (Part B) with healthy obese subjects. […] Blood samples were collected at a time before dosing and at 0.5, 1, 2, 3, 4, 6, 8, 10, 12, 16, 24, 30, 36, 48, 60, 72, 96, 120, 168, 240, and 336 hours during Week 1 and during Week 4. The actual sampling times were recorded. […]
parameter: Tmax (h)
Express your answer in h, writing the number without its unit.

Q) # lookup: Tmax of CC(=O)N[C@@H](CCCNC(=N)N)C(=O)N[C@H]1CSSC[C@@H](C(N)=O)NC(=O)[C@H](Cc2c[nH]c3ccccc23)NC(=O)[C@H](CCCNC(=N)N)NC(=O)[C@@H](Cc2ccccc2)NC(=O)[C@H](Cc2c[nH]cn2)NC(=O)[C@@H](C)NC1=O [setmelanotide]
A) 4
